tested on: VchCAST RNA-guided transposition machinery (E. coli BL21(DE3) host, lacZ target); assay: relative integration efficiency (T-LR orientation) vs wild-type transposon end (log2 (normalized fold change)); transposon end mutated: right end (5 bp flank + 75 bp right end); higher = more efficient transposition

residue-codes: ACATTTCTGGATACAACCATAAAATGATAATTACACCCATAAATTCATAATTATCACACCCAATTTAACTATAACGCTCTGATCATAGTCAGACCAACATTGCTACGACCCGTATTCGCACCGACAC
measured-on: VchCAST RNA-guided transposition machinery (E. coli BL21(DE3) host, lacZ target)
relative integration efficiency (log2): -0.65

residue-codes: ACATTGGTTCATACAACCATAAAATGATAATTACACCCATAAATTGATAATTATCACACCCAATTTAACTATAACGCTCTGATCATAGTCAGACCAACATTGCTACGACCCGTATTCGCACCGACAC
measured-on: VchCAST RNA-guided transposition machinery (E. coli BL21(DE3) host, lacZ target)
relative integration efficiency (log2): -4.38

residue-codes: ACATTTGTTGATACAACCATAAAATGATAATTACACCCATAAATTGATAATTATCAAAACACCCATAAATTGATATTGCCTCTGATCATAGTCAGACCAACATTGCTACGACCCGTATTCGCACCGA
measured-on: VchCAST RNA-guided transposition machinery (E. coli BL21(DE3) host, lacZ target)
relative integration efficiency (log2): 2.29

residue-codes: ACATTTGTTGATACAACCATAAAATGTAAATTACACCCATAAATTGATAATTATCACACCCATAAATTGATATTGCCTCTGATCATAGTCAGACCAACATTGCTACGACCCGTATTCGCACCGACAC
measured-on: VchCAST RNA-guided transposition machinery (E. coli BL21(DE3) host, lacZ target)
relative integration efficiency (log2): -0.454

residue-codes: ACATTTGTTGATACAACCATAAAATGATAATTACAACCATAAAATGATAATTATCACAACCATATATTGATATCTCCTCTGATCATAGTCAGACCAACATTGCTACGACCCGTATTCGCACCGACAC
measured-on: VchCAST RNA-guided transposition machinery (E. coli BL21(DE3) host, lacZ target)
relative integration efficiency (log2): 0.049

residue-codes: ACATTTGTGGATACAACCCTAAAATGATAATTACACCCATAAATGGATCATTATCACACCCAATTTAACTATAACGCTCTGATCATAGTCAGACCAACATTGCTACGACCCGTATTCGCACCGACAC
measured-on: VchCAST RNA-guided transposition machinery (E. coli BL21(DE3) host, lacZ target)
relative integration efficiency (log2): -1.6

residue-codes: ACATTTGTCGATACAACCATAAAACGATAATTACACCCATAAATTGATAATTATCACACCCAATTTAACTATAACGCTCTGATCATAGTCAGACCAACATTGCTACGACCCGTATTCGCACCGACAC
measured-on: VchCAST RNA-guided transposition machinery (E. coli BL21(DE3) host, lacZ target)
relative integration efficiency (log2): 2.07

residue-codes: ACATTTGTTGATACAACCATAAAATGATAATTACAACCATATATTGATATCTCTCACAACCATAAAGTGATATTTACTCTGATCATAGTCAGACCAACATTGCTACGACCCGTATTCGCACCGACAC
measured-on: VchCAST RNA-guided transposition machinery (E. coli BL21(DE3) host, lacZ target)
relative integration efficiency (log2): 0.0743

residue-codes: ACATTTGTTGATACAACCATATATTGATATCTCCAACCATATATTGATATCTCTCACACCCATAAATTGATATTGCCTCTGATCATAGTCAGACCAACATTGCTACGACCCGTATTCGCACCGACAC
measured-on: VchCAST RNA-guided transposition machinery (E. coli BL21(DE3) host, lacZ target)
relative integration efficiency (log2): -0.162

residue-codes: ACATTTGTTGATACACCCATAAATTGATATTGCCACCCATAAATTGATATTGCTCACACCCATAAATTGATAATTACTCTGATCATAGTCAGACCAACATTGCTACGACCCGTATTCGCACCGACAC
measured-on: VchCAST RNA-guided transposition machinery (E. coli BL21(DE3) host, lacZ target)
relative integration efficiency (log2): 0.226

Taken from the supplement of paper PMC10201428.
